Target: USP30 (Homo sapiens (Human), UniProt Q70CQ3)
Sequence (Q70CQ3 57-517): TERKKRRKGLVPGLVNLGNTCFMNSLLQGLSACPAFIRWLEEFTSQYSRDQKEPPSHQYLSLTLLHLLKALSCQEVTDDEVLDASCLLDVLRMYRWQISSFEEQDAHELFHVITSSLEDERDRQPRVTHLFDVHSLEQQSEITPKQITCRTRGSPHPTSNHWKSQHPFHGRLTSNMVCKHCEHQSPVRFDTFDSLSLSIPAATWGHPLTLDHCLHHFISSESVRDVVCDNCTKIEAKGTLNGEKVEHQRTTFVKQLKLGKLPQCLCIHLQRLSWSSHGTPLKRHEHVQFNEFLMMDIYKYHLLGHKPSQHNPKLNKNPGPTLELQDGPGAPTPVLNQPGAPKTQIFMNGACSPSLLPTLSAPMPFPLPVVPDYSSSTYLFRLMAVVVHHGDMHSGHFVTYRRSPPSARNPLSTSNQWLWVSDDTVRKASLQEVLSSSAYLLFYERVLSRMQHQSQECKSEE
pIC50: −log10 of the molar value.
readout.type: pIC50

A selection of reference data follows.
molecule: N#CN1C[C@H](NC(=O)c2nnc(-c3cc(OC(F)(F)F)ccc3OC3CC3)o2)C[C@H]1Cn1ccnn1 [Example 15]
pIC50: 8.10

molecule: N#CN1C[C@H](NC(=O)c2ncc(-c3ccccc3C3CC3)o2)C[C@H]1Cn1ccnn1 [Example 8]
pIC50: 7.85

molecule: N#Cc1cccc(-c2cnc(C(=O)N[C@@H]3C[C@@H](Cn4cnnc4)N(C#N)C3)o2)c1 [Example 19]
pIC50: 8.70

molecule: N#CN1C[C@H](NC(=O)N2CCC(c3cccc(OC(F)(F)F)c3)C2)C[C@H]1Cn1cccn1 (stereo partly drawn) [Example 38]
pIC50: 6.68

molecule: N#Cc1ccc(C2CC2)c(-c2cnc(C(=O)N(C3CC3)[C@@H]3C[C@@H](Cn4ccnn4)N(C#N)C3)o2)c1 [Example 1]
pIC50: 8.30

molecule: N#CN1C[C@H](NC(=O)c2nnc(-c3cc(OC(F)(F)F)ccc3C3CC3)o2)C[C@H]1Cn1ccnn1 [Example 13]
pIC50: 8.30

molecule: N#Cc1cccc(-c2cnc(C(=O)N[C@@H]3C[C@@H](Cn4nccn4)N(C#N)C3)o2)c1 [Example 17]
pIC50: 8.40

molecule: N#CN1C[C@H](NC(=O)c2nnc(-c3cc(OC(F)(F)F)ccc3C3CC3)o2)C[C@H]1Cn1cccn1 [Example 44]
pIC50: 8.30

molecule: N#Cc1ccc(C2CC2)c(-c2nnc(C(=O)N[C@@H]3C[C@@H](Cn4cccn4)N(C#N)C3)o2)c1 [Example 46]
pIC50: 8.05

molecule: N#CN1C[C@H](NC(=O)N2CCC(c3cccc(OC(F)(F)F)c3)C2)C[C@H]1Cn1cccn1 (stereo partly drawn) [Example 36]
pIC50: 7.00

1: N#Cc1cnc(N2CCC2)c(-c2nnc(C(=O)N[C@@H]3C[C@@H](Cn4ccnn4)N(C#N)C3)o2)c1 [Example 40]
2: N#Cc1ccc(C2CC2)c(-c2cnc(C(=O)N[C@@H]3C[C@@H](Cn4ccnn4)N(C#N)C3)o2)c1 [Example 9]
3: CCc1cccc(-c2cnc(C(=O)N[C@@H]3C[C@@H](Cn4ccnn4)N(C#N)C3)o2)c1 [Example 11]
4: COc1ccccc1-c1cnc(C(=O)N[C@@H]2C[C@@H](Cn3ccnn3)N(C#N)C2)o1 [Example 6]
Order these by pIC50, descending, and give the full ranking. Answer format: list of labels, ordered as asked.
2, 3, 1, 4
(2: 8.70, 3: 8.40, 1: 7.92, 4: 7.64)

Hello, the source for this data is patent US20250034122A1, in case you need it.
